Give measured IC50 for each item. Keep answers brief.
# MEASURED_TARGET: T1, CathepsinG, from human neutrophils (human, UniProt P08311 21-244)
# T1 sequence (looked up): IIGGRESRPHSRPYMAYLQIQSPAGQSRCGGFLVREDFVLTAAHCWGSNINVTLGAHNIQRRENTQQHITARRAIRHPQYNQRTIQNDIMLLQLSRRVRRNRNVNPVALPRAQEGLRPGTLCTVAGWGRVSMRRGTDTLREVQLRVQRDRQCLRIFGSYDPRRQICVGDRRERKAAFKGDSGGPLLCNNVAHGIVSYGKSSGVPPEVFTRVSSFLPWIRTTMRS
# EXPERIMENTAL_DETAILS: cell-based or functional assay
Bridges are numbered along the chain shown (N, C = ends). [ ]: non-standard residue; d: D form.
Give bare numbers, in nmol.

The cases that follow already have their IC50 on record.
BINDER	MEASURE_NAME	UNIT_SYMBOL	DATA_VALUE
cyclo(FCTKSDPPICS[dT]P) (disulfide 2-10) [Example 72]	IC50	nmol	87
XCTKSDPPICN (HELM PEPTIDE1{[O=C([C@@H](N[*:1])C1CCCCC1)[*:2]].C.T.K.S.D.P.P.I.C.N.[dP].P}$PEPTIDE1,PEPTIDE1,2:R3-10:R3|PEPTIDE1,PEPTIDE1,1:R1-13:R2$$$V2.0; SMILES CC[C@H](C)[C@@H]1NC(=O)[C@@H]2CCCN2C(=O)[C@@H]2CCCN2C(=O)[C@H](CC(=O)O)NC(=O)[C@H](CO)NC(=O)[C@H](CCCCN)NC(=O)[C@H]([C@@H](C)O)NC(=O)[C@@H]2CSSC[C@H](NC1=O)C(=O)N[C@@H](CC(N)=O)C(=O)N1CCC[C@@H]1C(=O)N1CCC[C@H]1C(=O)N[C@@H](C1CCCCC1)C(=O)N2) [Example 37]	IC50	nmol	35

Field: next binder
Would you mind telling me what IC50 value was observed for cyclo(FCTKSDPPICS[dP]L) (disulfide 2-10) [Example 51] ? 91
